Target: recombinant SARS-CoV-2 spike B.1.617.2 with His-tag (SARS-CoV-2), P0DTC2
Test: BLI
REPORTED METRIC: Kd (µM)
Give the quantity in µM, number only.

// Kd lookup, binder = GTEWLYKVWKAFVDNMS (designed binder, modifications not checked) [stapled peptide pep39] , result: 4.1
